system: OVCAR-5; test: Growth inhibition of human OVCAR5 cells at 10 uM by sulforhodamine B assay; assay type: functional; conditions: read-out: GI
ENDPOINT_LABEL: inhibition of growth at 10 µM (%)
Answers are plain numbers, in %.

Would you please look over these solved cases?
COc1ccc2nc(NC(=O)c3cccnc3Nc3ccc(F)cc3)sc2c1: 3
COc1ccc2nc(NC(=O)c3cccnc3Nc3ccc(Cl)cc3)sc2c1: 10
O=C(Nc1nc2ccc([N+](=O)[O-])cc2s1)c1cccnc1Nc1cc(F)c(F)c(F)c1: 52
COc1ccc2nc(NC(=O)c3cccnc3Nc3ccc(Cl)cc3Cl)sc2c1: 4

Pending compound:
**Q:** What does the data say about its inhibition of growth at 10 µM? Entry: "O=S1(=O)c2ccccc2N(c2ccccc2)c2nc(-c3cccnc3Nc3ccc(Cl)cc3Cl)nn21"
**A:** 8

----------
test system: SK-N-SH; assay: Growth inhibition of human SK-N-SH cells at 10 uM by sulforhodamine B assay; format: functional; settings: read-out: GI
Please respond with reported inhibition of growth at 10 µM for every item in the list.
Numbers only, in %.

O=C(Nc1nc2ccc([N+](=O)[O-])cc2s1)c1cccnc1Nc1ccc(F)cc1: 63
CN1c2ccccc2S(=O)(=O)n2nc(-c3cccnc3Nc3ccc(Cl)cc3Cl)nc21: 16
O=C(Nc1nc2ccc([N+](=O)[O-])cc2s1)c1cccnc1Nc1ccccc1: 48

// each compound listed below needs its inhibition of growth at 10 µM
1. COc1ccc2nc(NC(=O)c3cccnc3Nc3ccc(Cl)cc3Cl)sc2c1
2. O=S1(=O)c2ccccc2N(c2ccccc2)c2nc(-c3cccnc3Nc3ccc(Cl)cc3Cl)nn21
3. O=C(Nc1nc2ccc([N+](=O)[O-])cc2s1)c1cccnc1Nc1ccc(F)c(Cl)c1
4. COc1ccc2nc(NC(=O)c3cccnc3Nc3cc(F)c(F)c(F)c3)sc2c1

**A:**
[14, 23, 3, 47]

// each compound listed below needs its inhibition of growth at 10 µM
1. O=C(Nc1nc2ccc([N+](=O)[O-])cc2s1)c1cccnc1Nc1ccc(Cl)cc1
2. COc1ccc2nc(NC(=O)c3cccnc3Nc3ccccc3)sc2c1

**A:**
1: 48; 2: 26

**Q:** What does the data say about its inhibition of growth at 10 µM? Entry: "CC(=O)O[C@H]1C(=O)[C@@]2(C)[C@H]([C@H](OC(=O)c3ccccc3)[C@]3(O)C[C@H](OC(=O)[C@H](O)[C@@H](NC(=O)c4ccccc4)c4ccccc4)C(C)=C1C3(C)C)[C@]1(OC(C)=O)CO[C@@H]1C[C@@H]2O"
**A:** 20

----------
test system: OVCAR-5; assay: Growth inhibition of human OVCAR5 cells at 10 uM by sulforhodamine B assay; type: functional; details: read-out: GI
ENDPOINT_LABEL: inhibition of growth at 10 µM (%)
Answers are plain numbers, in %.

Would you please look over these solved cases?
O=S1(=O)c2ccccc2N(c2ccccc2)c2nc(-c3cccnc3Nc3ccc(Cl)cc3)nn21: 1
CC(=O)O[C@H]1C(=O)[C@@]2(C)[C@H]([C@H](OC(=O)c3ccccc3)[C@]3(O)C[C@H](OC(=O)[C@H](O)[C@@H](NC(=O)c4ccccc4)c4ccccc4)C(C)=C1C3(C)C)[C@]1(OC(C)=O)CO[C@@H]1C[C@@H]2O: 51

Pending molecule:
**Q:** Value wanted: inhibition of growth at 10 µM (OVCAR-5) of entry "CN1c2ccccc2S(=O)(=O)n2nc(-c3cccnc3Nc3ccccc3)nc21"
**A:** 15
